B1: Pistol ribozyme (parent)
chain: GGGUCGUUGUUCCAUAAUCGCGUGGAUAUGGCACGCAAGUUUCUACCGGGCACCGUAAAUGUCCGACUGGAGCCGUUCGGGCGGCUAUAAACAGACCUCAGGCCCGAAGCGUGGCGGCACCUGCCGCCGGUGGUAAAAAAGAUCGGAAGAGCACACGUCU

Variants of: B1
ASSAY EXPLANATION: aptazyme ON/OFF ratio, guanine; higher = stronger switching; co-transcriptional cleavage with and without guanine

MUTATION STRING: U8G U10A U11G C12G C13U
aptazyme ON/OFF ratio: 1.5
--
MUTATION STRING: U11A C12A C13U
aptazyme ON/OFF ratio: 1.47
--
MUTATION STRING: U7G U8A G9U C12A C13U
aptazyme ON/OFF ratio: 1.1
--
MUTATION STRING: U7A G9U U11G C12U
aptazyme ON/OFF ratio: 1.52
--
MUTATION STRING: U8A G9C U10C U11G C12U C13G
aptazyme ON/OFF ratio: 1.08
--
MUTATION STRING: U7G U10C U11C C12U C13U
aptazyme ON/OFF ratio: 1.09
--
MUTATION STRING: U7C U8C G9U C12U C13A
aptazyme ON/OFF ratio: 1.06
--
MUTATION STRING: U7C U8C G9U U10A U11G C12U C13A
aptazyme ON/OFF ratio: 1.06
--
MUTATION STRING: U7G U8A G9C U10G U11A C12G C13G
aptazyme ON/OFF ratio: 1.04
--
MUTATION STRING: U8C G9A U11C C13G
aptazyme ON/OFF ratio: 1.04
--
MUTATION STRING: U7G U8C G9U U11A C13G
aptazyme ON/OFF ratio: 1.02
--
MUTATION STRING: U7A U8C G9C U10A U11A C12U C13G
aptazyme ON/OFF ratio: 1.08
--
MUTATION STRING: U7A G9A U10G U11C C12G C13A
aptazyme ON/OFF ratio: 1.27
--
MUTATION STRING: U8G G9C U10A U11C C12G C13A
aptazyme ON/OFF ratio: 1.05
--
MUTATION STRING: U7G U10G U11G C13U
aptazyme ON/OFF ratio: 1.2
--
MUTATION STRING: U7C U8G U11A
aptazyme ON/OFF ratio: 1.88
--
MUTATION STRING: U7C U8C U10A U11G C12U C13G
aptazyme ON/OFF ratio: 1.15
